Tested on: RARb homodimer (NR concentration 270 nM)
Experiment: PBM binding z-score (relative to random genomic background probes); higher = stronger binding; sequences stand for … in GC…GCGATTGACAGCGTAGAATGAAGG
Mark f for PBM binding z-score values under 1, and t for everything at or above.

Answered cases to consult:
biosequence=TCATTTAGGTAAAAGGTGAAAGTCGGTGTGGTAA measured_target="RARb homodimer (NR concentration 270 nM)" cat=t
biosequence=AGTCAAAGTTCATGTAGGTAACGTAAGATATGCT measured_target="RARb homodimer (NR concentration 270 nM)" cat=t
biosequence=CGTCAAAGTTCAACTAACGTAACGTAAAGCACGC measured_target="RARb homodimer (NR concentration 270 nM)" cat=t
biosequence=AATACAGGGTCATCGTAGGCTAGAGTACGCACAG measured_target="RARb homodimer (NR concentration 270 nM)" cat=t
biosequence=TCATATAGGTAAAGGCGAAAGTCGAACGATATGA measured_target="RARb homodimer (NR concentration 270 nM)" cat=f

Does PBM binding z-score meet or surpass 1 for GCTCGGAAGACAAGGTCAGAGCTTTGTCCGTAGA ?
t

Check this sequence for PBM binding z-score at or above 1: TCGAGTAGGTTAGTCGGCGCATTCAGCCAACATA
f

Answer whether PBM binding z-score of CGAACGAGGGCATGAGTTGAAAGCAAATGCCGAT is greater than or equal to 1.
f

// inclusive: PBM binding z-score at least 1? input: ACTATTAGTTGAGACGCGGGCAACCGATAGGTTG
f

In plain terms: is recorded PBM binding z-score at least 1 for TCATATAGGTAAATGCTAGGTGAAAGGCCGATCT ?
f

Say whether CGTCCAAGGTCAGCAGGCCAGTGAAAGCGACGTG shows PBM binding z-score of 1 or more.
t

API: above_or_equal(metric=PBM binding z-score, cutoff=1) for item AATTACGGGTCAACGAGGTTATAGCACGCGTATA
t

Has TTACCTAGGTGAAAGGTCGTTGATGCACGCCTTG a recorded PBM binding z-score greater than or equal to 1?
t

Evaluate CCTTCTGGGCCATCAGGTCATTGATATCAACGTT : PBM binding z-score at minimum 1?
t

Is it the case that CCTATTAGTTGACCATAAGGGCAACGGAAGCTCG has PBM binding z-score reaching or exceeding 1?
t

Record TTACCAAGGTGTAAGGTCGTTGATGCACGCCTTG ; criterion: PBM binding z-score no lower than 1. Met?
f

Could you verify whether the entry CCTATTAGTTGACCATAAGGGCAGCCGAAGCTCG shows PBM binding z-score of no less than 1?
t

Does the sequence CTGACTGGGGCAAGGTTACCATAACGCACAGCCA have recorded PBM binding z-score that is 1 or more?
t

State whether the measured PBM binding z-score reaches 1, counting equality as reaching it, for AGTCGAAGTTCACTAGGTAACGTAAGATTCAGCT
t

In plain terms: is recorded PBM binding z-score at least 1 for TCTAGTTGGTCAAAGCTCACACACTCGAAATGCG ?
f
